The following compounds are shown together with reported Km values.
Test system: FPMO11 (flavoprotein monooxygenase 11)
Construct: full-length, C-terminal 6xHis, pET21a, E. coli BL21; FAD flavoprotein
Test details: NAD(P)H oxidation at […] nm, initial velocity
Type: biochemical, Phanerodontia chrysosporium
Condition details: apparent; NADPH co-substrate, 50 mM HEPES-NaOH pH 7.0, 30°C
Express the reported value numerically, then name its unit.

Please review the following examples before continuing.
Compound: O=C(O)c1cc(O)ccc1O [GA]
Km: 48 µM
//
Compound: O=C(O)c1cccc(O)c1O [2,3DHB]
Km: 67 µM
//
Compound: O=C(O)c1ccc(Cl)cc1O [4CSA]
Km: 120 µM
//
Compound: O=C(O)c1ccc2ccccc2c1O [1H2N]
Km: 100 µM
//
Compound: O=C(O)c1ccc(O)cc1O [2,4DHB]
Km: 82 µM
//
Compound: O=C(O)c1ccccc1O [SA]
Km: 30 µM
//
Compound: O=C(O)c1c(O)cccc1-c1ccccc1 [2H6PB]
Km: 320 µM
//
Compound: O=C(O)c1c(O)ccc2ccccc12 [2H1N]
Km: 110 µM

Kindly review the next compound as well.
Please report the recorded Km for O=C(O)c1cccc(-c2ccccc2)c1O [2H3PB] .
290 µM
